Target: purified HLA DRB5*0101 (human)
Experiment: competition with 125I-labelled reference peptide, purified HLA
pIC50: −log10 of the molar value.
metric name: pIC50

• AKSMEYDAVATTHSW (modifications not checked) [Flu.PB1.655] = 5.45
